B1: ACSBG2 (parent)
chain: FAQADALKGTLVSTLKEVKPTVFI

variants of: B1; experiment: protein stability index of a GFP-peptide fusion (GPS, HEK-293T) (PSI 1-6); higher = more stable; details: c terminus: a fixed tail appended;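 further: lentivirally expressed fusions sorted by FACS into six bins by GFP to DsRed ratio, PSI derived from sequencing read proportions per bin multiplied by bin number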
Measure: protein stability index
# print the numeric value only

• D5C = 1.35

Q: Value lookup for protein stability index; key = D5Y
A: 1.44

Q: Value lookup for protein stability index; key = K8D
A: 1.9

Q: Value lookup for protein stability index; key = G9N
A: 1.27

Q: Value lookup for protein stability index; key = L7N
A: 1.73
